// data source = the Immune Epitope Database (IEDB)

- studySystem: HLA-A*24:03
- protocolText: IEDB peptide-MHC binding, purified MHC/direct/fluorescence; filed as Kd, often an IC50 or EC50 that approximates it; bounds were set here for any values at or beyond the usual limits of such assays
- experimentalParameters: source organism: Mammarenavirus machupoense
measureName: pKd
Quick note: pKd means taking -log10 of the concentration in moles per liter.

// query Give pKd for the following sequence: LYTVKYPNL
// result 7.52

====

The sequences listed here are annotated with their pKd.
- studySystem: HLA-A*26:01
- protocolText: IEDB peptide-MHC binding, purified MHC/direct/fluorescence; filed as Kd, often an IC50 or EC50 that approximates it; bounds were set here for any values at or beyond the usual limits of such assays
- experimentalParameters: source organism: Vibrio cholerae
pKd: −log10 of the molar value.

Answered cases to consult:
FPRSAERAG; ≤ 4.70
AYLLQHLDL; ≤ 4.70

Could you now look at the following sequence, please?
// query Give pKd for the following sequence: EIFPNIKIY
// result 7.13

====

- studySystem: HLA-A*29:02
- protocolText: IEDB peptide-MHC binding, purified MHC/direct/fluorescence; filed as Kd, often an IC50 or EC50 that approximates it; bounds were set here for any values at or beyond the usual limits of such assays
- experimentalParameters: source organism: Ebola virus Yambio0403
pKd: −log10 of the molar value.
measureName: pKd

// query Give pKd for the following sequence: SWHHTSDDF
// result ≤ 4.70

====

- studySystem: HLA-B*57:01
- protocolText: IEDB peptide-MHC binding, purified MHC/direct/fluorescence; filed as Kd, often an IC50 or EC50 that approximates it; bounds were set here for any values at or beyond the usual limits of such assays
- experimentalParameters: source organism: Vibrio cholerae
measureName: Kd

// query Give Kd for the following sequence: FPLTQRDVL
// result ≥ 20 µM

====

- studySystem: HLA-B*15:17
- protocolText: IEDB peptide-MHC binding, purified MHC/competitive/fluorescence; filed as Kd, often an IC50 or EC50 that approximates it; bounds were set here for any values at or beyond the usual limits of such assays
- experimentalParameters: source organism: Vibrio antiquarius
pKd: −log10 of the molar value.
measureName: pKd

// query Give pKd for the following sequence: SLTIPSFYT
// result ≤ 4.70

====

- studySystem: HLA-B*15:01
- protocolText: IEDB peptide-MHC binding, purified MHC/competitive/radioactivity; filed as Kd, often an IC50 or EC50 that approximates it; bounds were set here for any values at or beyond the usual limits of such assays
- experimentalParameters: source organism: Dengue virus 3 Sri Lanka/1266/2000
measureName: Kd (nM)
Enter your answer as a number in nM; do not include the unit.

// query Give Kd for the following sequence: MMILPAALAF
// result 2.41

====

- studySystem: HLA-A*69:01
- protocolText: IEDB peptide-MHC binding, purified MHC/competitive/fluorescence; filed as Kd, often an IC50 or EC50 that approximates it; bounds were set here for any values at or beyond the usual limits of such assays
- experimentalParameters: source organism: Orthohantavirus puumalaense
measureName: Kd

// query Provide the reported Kd (system: HLA-A*69:01) for ATKDSFQSF
// result ≥ 20 µM

====

- studySystem: HLA-B*57:01
- protocolText: IEDB peptide-MHC binding, purified MHC/direct/fluorescence; filed as Kd, often an IC50 or EC50 that approximates it; bounds were set here for any values at or beyond the usual limits of such assays
- experimentalParameters: source organism: Encephalitozoon cuniculi GB-M1
pKd: −log10 of the molar value.
measureName: pKd

// query Give pKd for the following sequence: FSFFMNENF
// result ≤ 4.70

====

- studySystem: HLA-B*46:01
- protocolText: IEDB peptide-MHC binding, purified MHC/direct/fluorescence; filed as Kd, often an IC50 or EC50 that approximates it; bounds were set here for any values at or beyond the usual limits of such assays
- experimentalParameters: source organism: West Nile virus
pKd: −log10 of the molar value.
measureName: pKd

Answered cases to consult:
KCRVKMEKL; ≤ 4.70
TEGEGRVIL; ≤ 4.70

Could you now look at the following sequence, please?
// query Give pKd for the following sequence: GHGTVVLEL
// result ≤ 4.70

====

- studySystem: HLA-B*83:01
- protocolText: IEDB peptide-MHC binding, purified MHC/competitive/fluorescence; filed as Kd, often an IC50 or EC50 that approximates it; bounds were set here for any values at or beyond the usual limits of such assays
- experimentalParameters: source organism: Bacillus anthracis str. A2012
measureName: Kd

// query Provide the reported Kd (system: HLA-B*83:01) for YMKERFTVL
// result ≥ 5 µM

====

- studySystem: HLA-A*30:02
- protocolText: IEDB peptide-MHC binding, purified MHC/competitive/radioactivity; filed as Kd, often an IC50 or EC50 that approximates it; bounds were set here for any values at or beyond the usual limits of such assays
- experimentalParameters: source organism: Dengue virus 1 Brazil/97-11/1997
measureName: Kd (nM)
Enter your answer as a number in nM; do not include the unit.

// query Give Kd for the following sequence: YKVASEGFQY
// result 135

====

- studySystem: HLA-A*11:01
- protocolText: IEDB peptide-MHC binding, purified MHC/competitive/radioactivity; filed as Kd, often an IC50 or EC50 that approximates it; bounds were set here for any values at or beyond the usual limits of such assays
- experimentalParameters: source organism: Dengue virus 2 Jamaica/1409/1983
measureName: pKd
Quick note: pKd means taking -log10 of the concentration in moles per liter.

Answered cases to consult:
ITYKCPLLR; 7.19
TTFVTPMLR; 7.10
KITAEWLWK; 5.84

Could you now look at the following sequence, please?
// query Give pKd for the following sequence: LTALNDMGK
// result 5.84

====

- studySystem: HLA-B*44:03
- protocolText: IEDB peptide-MHC binding, purified MHC/competitive/radioactivity; filed as Kd, often an IC50 or EC50 that approximates it; bounds were set here for any values at or beyond the usual limits of such assays
- experimentalParameters: source organism: Dengue virus 2 Jamaica/1409/1983
measureName: Kd (nM)
Enter your answer as a number in nM; do not include the unit.

Answered cases to consult:
VEMGEAAGI; 206
KEAKMLLDNI; 1760

Could you now look at the following sequence, please?
// query Give Kd for the following sequence: KEIGRMLNI
// result 417

====

- studySystem: HLA-A*02:16
- protocolText: IEDB peptide-MHC binding, purified MHC/direct/fluorescence; filed as Kd, often an IC50 or EC50 that approximates it; bounds were set here for any values at or beyond the usual limits of such assays
- experimentalParameters: source organism: Vibrio cholerae O395
measureName: Kd

// query Give Kd for the following sequence: VVSEIDLQW
// result ≥ 20 µM

====

The sequences listed here are annotated with their pKd.
- studySystem: HLA-B*08:01
- protocolText: IEDB peptide-MHC binding, purified MHC/direct/fluorescence; filed as Kd, often an IC50 or EC50 that approximates it; bounds were set here for any values at or beyond the usual limits of such assays
- experimentalParameters: source organism: Escherichia coli O157:H7
pKd: −log10 of the molar value.

RFDEAIINY; ≤ 4.70

Could you now look at the following sequence, please?
// query Give pKd for the following sequence: AQRPAKYSY
// result ≤ 4.70

====

- studySystem: HLA-B*40:02
- protocolText: IEDB peptide-MHC binding, purified MHC/competitive/radioactivity; filed as Kd, often an IC50 or EC50 that approximates it; bounds were set here for any values at or beyond the usual limits of such assays
- experimentalParameters: source organism: Mammarenavirus lassaense
measureName: Kd (nM)
Enter your answer as a number in nM; do not include the unit.

// query Provide the reported Kd (system: HLA-B*40:02) for KENLYIKSI
// result 19.1

====

- studySystem: HLA-A*02:11
- protocolText: IEDB peptide-MHC binding, purified MHC/competitive/fluorescence; filed as Kd, often an IC50 or EC50 that approximates it; bounds were set here for any values at or beyond the usual limits of such assays
- experimentalParameters: source organism: Coxiella burnetii 'MSU Goat Q177'
measureName: pKd
Quick note: pKd means taking -log10 of the concentration in moles per liter.

// query Give pKd for the following sequence: YYLIKYLHV
// result 7.15

====

- studySystem: HLA-A*68:01
- protocolText: IEDB peptide-MHC binding, purified MHC/competitive/radioactivity; filed as Kd, often an IC50 or EC50 that approximates it; bounds were set here for any values at or beyond the usual limits of such assays
- experimentalParameters: source organism: SARS coronavirus Tor2
pKd: −log10 of the molar value.
Tag: 1.0 if measured pKd is not below 6, 0.0 if it is.

Example entries begin here.
SADASTFLK; 1.0
WVFGSTMNNK; 1.0
HLYLQYIRK; 0.0

// query # bool: pKd of ALKYLPIDK >= 6
// result 0.0

// query # bool: pKd of TLVPQEHYVR >= 6
// result 1.0

// query # bool: pKd of AFQHQNSKK >= 6
// result 0.0

// query # bool: pKd of STSAFIDTIK >= 6
// result 1.0

// query # bool: pKd of SAGFSLWIY >= 6
// result 0.0
